Target: ABL1 (Homo sapiens)
Sequence (P00519 whole entry): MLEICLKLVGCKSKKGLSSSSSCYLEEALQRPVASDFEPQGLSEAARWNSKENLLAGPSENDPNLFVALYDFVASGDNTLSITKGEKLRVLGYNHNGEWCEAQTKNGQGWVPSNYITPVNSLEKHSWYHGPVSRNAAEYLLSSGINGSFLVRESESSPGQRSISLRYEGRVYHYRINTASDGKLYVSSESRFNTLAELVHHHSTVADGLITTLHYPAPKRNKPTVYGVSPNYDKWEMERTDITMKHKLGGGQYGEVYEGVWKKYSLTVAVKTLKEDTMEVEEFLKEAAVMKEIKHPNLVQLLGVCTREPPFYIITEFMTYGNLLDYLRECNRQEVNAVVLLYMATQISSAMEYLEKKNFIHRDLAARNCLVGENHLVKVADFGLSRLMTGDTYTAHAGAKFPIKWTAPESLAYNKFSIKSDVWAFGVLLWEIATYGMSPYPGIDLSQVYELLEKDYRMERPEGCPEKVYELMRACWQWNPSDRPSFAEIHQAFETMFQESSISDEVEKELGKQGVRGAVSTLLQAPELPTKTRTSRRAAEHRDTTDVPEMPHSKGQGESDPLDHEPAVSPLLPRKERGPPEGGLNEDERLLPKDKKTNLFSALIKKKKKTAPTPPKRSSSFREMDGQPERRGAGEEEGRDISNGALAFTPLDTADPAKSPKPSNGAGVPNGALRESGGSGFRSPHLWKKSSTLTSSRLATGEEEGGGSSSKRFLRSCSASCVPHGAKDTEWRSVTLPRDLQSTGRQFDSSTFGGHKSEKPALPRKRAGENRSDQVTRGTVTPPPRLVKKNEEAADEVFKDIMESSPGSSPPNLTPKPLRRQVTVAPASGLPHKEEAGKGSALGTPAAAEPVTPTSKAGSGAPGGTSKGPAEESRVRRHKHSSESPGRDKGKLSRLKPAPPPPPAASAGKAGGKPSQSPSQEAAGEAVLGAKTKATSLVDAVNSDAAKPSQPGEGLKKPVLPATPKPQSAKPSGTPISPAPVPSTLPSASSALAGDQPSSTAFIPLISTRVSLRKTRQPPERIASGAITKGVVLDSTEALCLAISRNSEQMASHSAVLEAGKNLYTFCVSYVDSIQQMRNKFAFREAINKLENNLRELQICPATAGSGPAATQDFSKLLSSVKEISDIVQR
Assay: Z'-LYTE SelectScreen biochemical kinase assay ABL1
Details: 10 μmolar compound concentration; ATP at Km app; read-out: ABL1 inhibition
Entries and their inhibition at 10 µM

# example entries with known answers
>  <molecule>
CCn1ncc2c1CCC(Nc1nc3c(-c4ccc(C)nc4)cccn3n1)C2 (centres unmarked)

>  <measured-endpoint>
inhibition at 10 µM

>  <endpoint-value>
< 40%

$$$$
>  <molecule>
Cc1cc(F)ccc1-c1cccn2nc(NC3CCc4c(cnn4CC(C)C)C3)nc12 (centres unmarked)

>  <measured-endpoint>
inhibition at 10 µM

>  <endpoint-value>
< 40%

$$$$
>  <molecule>
CCCCn1ncc2c1CCC(Nc1nc3c(-c4ccc(F)cc4C)cccn3n1)C2 (centres unmarked)

>  <measured-endpoint>
inhibition at 10 µM

>  <endpoint-value>
< 40%

$$$$
>  <molecule>
Fc1cccc(-c2cccn3nc(Nc4ccc5[nH]cnc5c4)nc23)c1 [Cpd. 293 in WO09155551, reference compound]

>  <measured-endpoint>
inhibition at 10 µM

>  <endpoint-value>
> 80%

$$$$

# inhibition at 10 µM lookup, item CC1(C)C(=O)Nc2ccc(Nc3nc4c(-c5cccc(F)c5)cccn4n3)cc21 [Cpd. 263 in WO09155551, reference compound]
> 80%

# inhibition at 10 µM lookup, item CCn1ncc2c1CCC(Nc1nc3c(-c4ccc(F)cc4C)cccn3n1)C2 (centres unmarked)
< 40%

# inhibition at 10 µM lookup, item CCn1ncc2c1CCC(Nc1nc3c(-c4cnccc4OC)cccn3n1)C2 (centres unmarked)
< 40%

# inhibition at 10 µM lookup, item CCn1ncc2c1CCC(Nc1nc3c(-c4cncc(Cl)c4)cccn3n1)C2 (centres unmarked)
< 40%

# inhibition at 10 µM lookup, item CCn1nnc2c1CCC(Nc1nc3c(-c4ccc(F)cc4C)cccn3n1)C2 (centres unmarked)
< 40%

# inhibition at 10 µM lookup, item CCn1ncc2c1CCC(Nc1nc3c(-c4ccc(OC)nc4)cccn3n1)C2 (centres unmarked)
< 40%

# inhibition at 10 µM lookup, item CCn1ncc2c1CCC(Nc1nc3c(-c4cccc(Cl)c4)cccn3n1)C2 (centres unmarked)
< 40%

# inhibition at 10 µM lookup, item CCn1ncc2c1CCC(Nc1nc3c(-c4cncc(OC)c4)cccn3n1)C2 (centres unmarked)
< 40%

# inhibition at 10 µM lookup, item Cc1cc(F)ccc1-c1cccn2nc(NC3CCc4c(cnn4C(C)C)C3)nc12 (centres unmarked)
< 40%

# inhibition at 10 µM lookup, item `CCn1ncc2c1CC[C@@H](Nc1nc3c(-c4ccc(F)c(Cl)c4)cccn3n1)C2`
< 40%

# inhibition at 10 µM lookup, item `Cc1cc(F)ccc1-c1cccn2nc(Nc3ccc4c(cnn4C)c3)nc12`
40 to 80%

# inhibition at 10 µM lookup, item CCn1ncc2c1CCC(Nc1nc3c(-c4ccc(F)cc4)cccn3n1)C2 (centres unmarked)
< 40%

# inhibition at 10 µM lookup, item CC1(C)NC(=O)c2ccc(Nc3nc4c(-c5cccc(F)c5)cccn4n3)cc21 [Cpd. 302 in WO09155551, reference compound]
> 80%

---

Target: KDR (VEGFR2) (Homo sapiens, UniProt P35968)
Sequence (P35968 20-1356): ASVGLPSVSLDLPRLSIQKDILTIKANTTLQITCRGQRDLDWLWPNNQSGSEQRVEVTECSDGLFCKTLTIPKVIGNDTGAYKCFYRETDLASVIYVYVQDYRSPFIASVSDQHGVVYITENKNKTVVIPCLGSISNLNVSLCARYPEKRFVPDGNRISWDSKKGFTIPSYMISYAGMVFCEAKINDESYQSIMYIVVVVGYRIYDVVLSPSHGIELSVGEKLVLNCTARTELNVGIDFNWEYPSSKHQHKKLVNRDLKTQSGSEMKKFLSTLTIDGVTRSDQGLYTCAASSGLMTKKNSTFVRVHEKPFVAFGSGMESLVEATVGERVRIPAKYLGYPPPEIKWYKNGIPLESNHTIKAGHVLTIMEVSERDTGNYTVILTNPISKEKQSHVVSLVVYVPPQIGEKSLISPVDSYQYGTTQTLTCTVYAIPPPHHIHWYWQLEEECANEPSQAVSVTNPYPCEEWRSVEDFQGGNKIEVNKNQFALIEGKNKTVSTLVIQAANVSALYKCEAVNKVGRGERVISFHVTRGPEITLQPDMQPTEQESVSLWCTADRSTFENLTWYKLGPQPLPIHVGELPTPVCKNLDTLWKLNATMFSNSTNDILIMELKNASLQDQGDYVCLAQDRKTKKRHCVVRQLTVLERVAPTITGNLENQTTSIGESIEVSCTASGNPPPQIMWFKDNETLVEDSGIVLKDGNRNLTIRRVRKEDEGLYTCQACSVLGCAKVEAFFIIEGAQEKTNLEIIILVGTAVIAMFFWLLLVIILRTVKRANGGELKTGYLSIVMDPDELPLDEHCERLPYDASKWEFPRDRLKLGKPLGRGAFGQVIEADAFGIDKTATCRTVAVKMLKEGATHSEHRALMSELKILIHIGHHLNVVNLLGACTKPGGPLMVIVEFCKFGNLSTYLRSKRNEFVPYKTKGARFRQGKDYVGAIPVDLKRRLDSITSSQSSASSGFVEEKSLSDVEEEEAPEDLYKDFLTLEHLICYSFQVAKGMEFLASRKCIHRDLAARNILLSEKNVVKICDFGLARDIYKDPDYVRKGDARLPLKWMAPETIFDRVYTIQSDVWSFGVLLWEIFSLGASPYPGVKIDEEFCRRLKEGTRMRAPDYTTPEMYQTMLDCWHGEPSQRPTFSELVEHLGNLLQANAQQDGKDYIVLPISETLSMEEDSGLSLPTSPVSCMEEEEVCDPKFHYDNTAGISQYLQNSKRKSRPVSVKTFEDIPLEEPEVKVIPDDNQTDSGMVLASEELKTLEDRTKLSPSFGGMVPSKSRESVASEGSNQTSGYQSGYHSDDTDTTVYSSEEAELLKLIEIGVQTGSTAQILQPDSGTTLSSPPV
Experiment: Z'-LYTE SelectScreen biochemical kinase assay KDR (VEGFR2)
Settings: read-out: % Inhibition mean KDR (VEGFR2)
Entries and their inhibition at 10 µM
Response body: numeric value in %, unit text excluded.

# example entries with known answers
>  <compound>
CCn1ncc2c1CCC(Nc1nc3c(-c4ccccc4C)cccn3n1)C2 (stereo not drawn)

>  <endpoint-value>
6

$$$$
>  <compound>
CCn1ncc2c1CCC(Nc1nc3c(-c4ccc(OC)nc4)cccn3n1)C2 (stereo not drawn)

>  <endpoint-value>
17

$$$$
>  <compound>
Cc1cc(F)ccc1-c1cccn2nc(NC3CCc4cnn(C)c4C3)nc12 (stereo not drawn)

>  <endpoint-value>
-10

$$$$
>  <compound>
CCn1ncc2c1CC[C@@H](Nc1nc3c(-c4ccc(F)cc4C)cccn3n1)C2

>  <endpoint-value>
10

$$$$
>  <compound>
CCc1nn(C)c2c1CCC(Nc1nc3c(-c4ccc(F)cc4C)cccn3n1)C2 (stereo not drawn)

>  <endpoint-value>
5

$$$$
>  <compound>
CCCn1ncc2c1CCC(Nc1nc3c(-c4ccc(F)cc4C)cccn3n1)C2 (stereo not drawn)

>  <endpoint-value>
-3

$$$$
>  <compound>
CCn1ncc2c1C(C)CC(Nc1nc3c(-c4cc(F)c(F)c(F)c4)cccn3n1)C2 (stereo not drawn)

>  <endpoint-value>
8

$$$$
>  <compound>
CCn1ncc2c1CC[C@H](Nc1nc3c(-c4ccc(F)c(Cl)c4)cccn3n1)C2

>  <endpoint-value>
-15

$$$$

// below: inhibition at 10 µM requested for another compound
# inhibition at 10 µM lookup, item CCn1ncc2c1CCC(Nc1nc3c(-c4ccc(F)cc4C)cccn3n1)C2 (stereo not drawn)
-3
